Please consider the recorded IC50 for Epithelial discoidin domain-containing receptor 1 (Homo sapiens) in what follows.
State just the number; it will be interpreted in nM.

Known IC50 results, listed for orientation:
COC(=O)N1CCN(c2cc(Nc3ncc(C(=O)Nc4c(C)cccc4Cl)s3)nc(C)n2)CC1 ... 4.32
Cc1nc(Nc2ncc(C(=O)Nc3c(C)cccc3Cl)s2)cc(NC2CCN(S(C)(=O)=O)C2)n1 (centres undefined) ... 11.7
Cc1nc(Nc2ncc(C(=O)Nc3c(C)cccc3Cl)s2)cc(N2CCN(C(=O)Oc3ccccc3)CC2)n1 ... 7.14

Could you now consider this next compound?
Problem: # returns recorded IC50 (system: Epithelial discoidin domain-containing receptor 1 (Homo sapiens)) for Cc1nc(Nc2ncc(C(=O)Nc3c(C)cccc3Cl)s2)cc(C2CCN(C(=O)Oc3ccccc3)C2)n1 (centres undefined)
Sequence (Q08345 whole entry, the tested form may be a part): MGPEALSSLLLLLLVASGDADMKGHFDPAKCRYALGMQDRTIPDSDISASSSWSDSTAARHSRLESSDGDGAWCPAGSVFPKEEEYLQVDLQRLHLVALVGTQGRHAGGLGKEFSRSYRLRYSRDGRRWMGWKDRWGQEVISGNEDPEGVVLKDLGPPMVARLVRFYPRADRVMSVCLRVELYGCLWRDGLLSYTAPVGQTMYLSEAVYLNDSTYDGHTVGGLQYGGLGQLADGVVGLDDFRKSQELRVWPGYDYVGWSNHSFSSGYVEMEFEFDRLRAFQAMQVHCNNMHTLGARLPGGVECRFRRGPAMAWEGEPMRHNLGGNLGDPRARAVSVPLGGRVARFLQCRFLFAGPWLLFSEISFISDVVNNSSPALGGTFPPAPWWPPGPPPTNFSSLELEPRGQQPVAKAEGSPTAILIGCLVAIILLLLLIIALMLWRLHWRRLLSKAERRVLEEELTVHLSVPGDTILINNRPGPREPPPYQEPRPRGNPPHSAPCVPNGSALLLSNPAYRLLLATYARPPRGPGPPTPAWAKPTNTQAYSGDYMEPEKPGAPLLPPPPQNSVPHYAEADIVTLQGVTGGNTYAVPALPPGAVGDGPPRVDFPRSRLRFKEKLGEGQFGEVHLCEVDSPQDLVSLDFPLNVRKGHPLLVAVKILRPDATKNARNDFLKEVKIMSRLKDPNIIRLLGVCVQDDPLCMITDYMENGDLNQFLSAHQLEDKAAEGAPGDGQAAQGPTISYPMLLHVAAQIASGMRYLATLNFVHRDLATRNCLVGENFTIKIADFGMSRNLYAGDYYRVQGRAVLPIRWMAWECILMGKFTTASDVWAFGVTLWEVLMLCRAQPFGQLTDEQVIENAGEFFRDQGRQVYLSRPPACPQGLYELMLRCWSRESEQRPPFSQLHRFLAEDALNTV
Solution: 7.51
